Each entry below lists one item and its recorded growth value.
system: E. coli TESEC Mtb Alr; test: growth (OD600 after 10 h); higher = more growth (less inhibition); settings: arabinose 1000 nM; compound 0.1 mM; raw OD600 reference: median of DMSO wells 0.294, cell-free background 0.041
Structures can show the parent of a compound that is named as a salt.
# print the numeric value only

Example cases with answers are listed next.
INSERT INTO results (compound, observed_result) VALUES
  ('CNCCCC1c2ccccc2C=Cc2ccccc21 [Protriptyline hydrochloride]', 0.219),
  ('CC(C)(C)NC(=O)[C@@H]1CN(Cc2cccnc2)CCN1C[C@@H](O)C[C@@H](Cc1ccccc1)C(=O)N[C@H]1c2ccccc2C[C@H]1O [Indinavir sulfate]', 0.293),
  ('COc1ccc2[nH]cc(CCNC(C)=O)c2c1', 0.29);

I am curious: what growth value has been reported for CN(C)CCC(c1ccc(Br)cc1)c1ccccn1 (configuration not stated) [Brompheniramine maleate] ? 0.293

Now try C[C@H](CCC(=O)O)[C@H]1CC[C@H]2[C@@H]3C(=O)C[C@@H]4CC(=O)CC[C@]4(C)[C@H]3CC(=O)[C@]12C [Dehydrocholic acid] . 0.252

Now try CN(C)CCOc1ccc(/C(=C(/CCCl)c2ccccc2)c2ccccc2)cc1 . 0.0409

====

Each entry below lists one item and its recorded growth value.
test system: E. coli TESEC Mtb DapB; test: growth (OD600 after 10 h); higher = more growth (less inhibition); settings: arabinose induction (level): High; compound 0.1 mM; raw OD600 reference: median of DMSO wells […], cell-free background 0.041
Where a name gives a salt, the structure may show the parent alone.
# print the numeric value only

Example cases with answers are listed next.
INSERT INTO assay_data (compound, readout_label, observed_result) VALUES
  ('CCOC(=O)C1=C(C)NC(C)=C(C(=O)OC)C1c1cccc(Cl)c1Cl (stereo unspecified)', 'growth', 0.0736),
  ('CCc1cc(Cl)c(OC)c(C(=O)NC[C@@H]2CCCN2CC)c1O [S(-)Eticlopride hydrochloride]', 'growth', 0.181),
  ('CC(CCc1ccc(O)cc1)NCCc1ccc(O)c(O)c1 (stereo unspecified) [Dobutamine hydrochloride]', 'growth', 0.19);

I am curious: what growth value has been reported for Cc1c(O)cccc1C(=O)N[C@@H](CSc1ccccc1)[C@H](O)CN1C[C@H]2CCCC[C@H]2C[C@H]1C(=O)NC(C)(C)C [Nelfinavir mesylate] ? 0.197

Now try Cc1ncc([N+](=O)[O-])n1CCO . 0.202

Now try Cn1c(=O)c2nc[nH]c2n(C)c1=O [Theophylline monohydrate] . 0.197

Now try CC(C)[N+](C)(CCOC(=O)C1c2ccccc2Oc2ccccc21)C(C)C [Propantheline bromide] . 0.156

Now try Nc1nc(F)nc2c1ncn2[C@@H]1O[C@H](CO)[C@@H](O)[C@@H]1O . 0.168

Now try CC(C)(C)NC[C@@H](O)COc1cccc2c1CCCC2=O [(+) -Levobunolol hydrochloride] . 0.205

Now try CCN1CCN(C(=O)N[C@@H](C(=O)N[C@@H]2C(=O)N3C(C(=O)O)=C(CSc4nnnn4C)CS[C@H]23)c2ccc(O)cc2)C(=O)C1=O [Cefoperazone dihydrate] . 0.201

Now try CN1CCC[C@@H]1CCO[C@](C)(c1ccccc1)c1ccc(Cl)cc1 [Clemastine fumarate] . 0.0513

Now try c1ccc2c(CC3=NCCN3)cccc2c1 [Naphazoline hydrochloride] . 0.184

Now try Cc1c(N)c(=O)n(-c2ccccc2)n1C . 0.175

Now try Nc1c2c(nc3ccccc13)CCCC2O (racemic) [Hydroxytacrine maleate (R,S)] . 0.203

Now try C=C1c2cccc(O)c2C(O)=C2C(=O)[C@]3(O)C(O)=C(C(N)=O)C(=O)[C@@H](N(C)C)[C@@H]3[C@@H](O)[C@H]12 [Methacycline hydrochloride] . 0.0592

Now try CC(=O)OCC(=O)[C@@]1(OC(C)=O)[C@@H](C)C[C@H]2[C@@H]3C[C@H](F)C4=CC(=O)C=C[C@]4(C)[C@@]3(F)[C@@H](O)C[C@@]21C [Diflorasone Diacetate] . 0.198

====

tested on: E. coli TESEC Mtb Alr; assay: growth (OD600 after 10 h); higher = more growth (less inhibition); conditions: arabinose 10000000 nM; compound 0.1 mM; raw OD600 reference: median of DMSO wells 0.146, cell-free background 0.041
Each entry below lists one item and its recorded growth value.
# print the numeric value only

Example cases with answers are listed next.
INSERT INTO measurements (compound, readout_label, observed_result) VALUES
  ('CC[N+](C)(CC)CCC[n+]1c(-c2ccccc2)c2cc(N)ccc2c2ccc(N)cc21 [Propidium iodide]', 'growth', 0.0888),
  ('CC1(C)NC(=O)N(c2ccc([N+](=O)[O-])c(C(F)(F)F)c2)C1=O [Nilutamide]', 'growth', 0.142);

I am curious: what growth value has been reported for CCN1CCC[C@H]1CNC(=O)c1c(O)c(Cl)cc(Cl)c1OC [Raclopride] ? 0.172

Now try O=P(O)(O)C(Cl)(Cl)P(=O)(O)O [Clodronate] . 0.14

Now try CC(=O)Oc1ccc(C(c2ccc(OC(C)=O)cc2)c2ccccn2)cc1 . 0.168

Now try C[C@@H]1CCC[C@H](C)N1NC(=O)c1ccc(Cl)c(S(N)(=O)=O)c1 [Clopamide] . 0.135

Now try Oc1ccc(C2CNCCc3c2cc(O)c(O)c3Cl)cc1 (stereo not drawn) . 0.086

Now try CC(=O)Oc1ccccc1C(=O)Oc1ccccc1C(=O)O . 0.142

====

tested on: E. coli TESEC Mtb Alr; assay: growth (OD600 after 10 h); higher = more growth (less inhibition); details: arabinose 1000000 nM; compound 0.1 mM; raw OD600 reference: median of DMSO wells 0.193, cell-free background 0.041
readout-label: growth
# print the numeric value only

Example cases with answers are listed next.
INSERT INTO results (compound, readout_label, observed_result) VALUES
  ('CC(C)(C)C(=O)OCOC(=O)[C@@H]1N2C(=O)[C@@H](NC(=O)[C@H](N)c3ccccc3)[C@H]2SC1(C)C', 'growth', 0.207),
  ('O=C(CCCN1CCN(c2ccccn2)CC1)c1ccc(F)cc1', 'growth', 0.177),
  ('COC(=O)[C@H](c1ccccc1Cl)N1CCc2sccc2C1', 'growth', 0.0439),
  ('CN(C)/N=N/c1[nH]cnc1C(N)=O', 'growth', 0.136);

Could you now look at the following compound, please?
I am curious: what growth value has been reported for O=P(O)(O)C(O)(Cn1ccnc1)P(=O)(O)O [Zoledronic acid hydrate] ? 0.211

====

test system: E. coli TESEC Mtb Asd; assay: growth (OD600 after 10 h); higher = more growth (less inhibition); details: arabinose induction (level): High; compound 0.1 mM; raw OD600 reference: median of DMSO wells 0.331, cell-free background 0.041
Structures can show the parent of a compound that is named as a salt.
Each entry below lists one item and its recorded growth value.
# print the numeric value only

I am curious: what growth value has been reported for C[C@H]1O[C@H](O[C@H]2[C@H](O)[C@@H](O)[C@@H](O[C@@H]([C@H](O)[C@@H](O)C=O)[C@H](O)CO)O[C@@H]2CO)[C@H](O)[C@@H](O)[C@@H]1N[C@H]1C=C(CO)[C@@H](O)[C@H](O)[C@H]1O ? 0.322

Now try COC(c1ccccc1)(c1ccccc1)[C@H](Oc1nc(C)cc(C)n1)C(=O)O . 0.284

Now try CN1CCN(c2c(F)cc3c(=O)c(C(=O)O)cn4c3c2SCC4)CC1 . 0.0497

Now try O=c1oc2ccccc2c(O)c1Cc1c(O)c2ccccc2oc1=O . 0.289

Now try N=C(N=C(N)N)N1CCOCC1 [Moroxidine hydrochloride] . 0.366

Now try O=C(OCCOCCO)c1ccccc1Nc1cccc(C(F)(F)F)c1 [Etofenamate] . 0.0525

Now try CC(=O)[C@H]1CC[C@H]2[C@@H]3CCC4=CC(=O)CC[C@]4(C)[C@H]3CC[C@]12C . 0.143

Now try Oc1c(Cl)cc(Cl)c2cccnc12 . 0.0595

====

tested on: E. coli TESEC Mtb Alr; experiment: growth (OD600 after 10 h); higher = more growth (less inhibition); details: arabinose 10000000 nM; compound 0.1 mM; raw OD600 reference: median of DMSO wells 0.146, cell-free background 0.041
Structures can show the parent of a compound that is named as a salt.
Each entry below lists one item and its recorded growth value.
# print the numeric value only

Look up growth with E. coli TESEC Mtb Alr for this compound: CC(C)(Sc1cc(C(C)(C)C)c(O)c(C(C)(C)C)c1)Sc1cc(C(C)(C)C)c(O)c(C(C)(C)C)c1 0.173

Now try CC(Oc1ccccc1)C(=O)N[C@@H]1C(=O)N2[C@@H]1SC(C)(C)[C@@H]2C(=O)O (some centres undefined) [Phenethicillin potassium salt] . 0.139

Now try Nc1nnc(-c2cccc(Cl)c2Cl)c(N)n1 . 0.179

Now try Cc1cc(C)nc(NS(=O)(=O)c2ccc(N)cc2)n1 [Sulfamethazine sodium salt] . 0.142
